Assay: Octanol-water partition coefficient, log P of the compound at pH 7.4 by shake flask method
Type: physicochemical
Give measured logD for each item. Keep answers brief.
Just the number, please, no unit attached.

logD for COc1cc(/C=C/C(=O)Nc2ccccc2)ccc1OCCCCN1CCCCC1 ?
1.61

logD for COc1cc(/C=C/C(=O)Nc2ccccc2)ccc1OCCCCCCCCCCN(C)C ?
1.8

logD for COc1cc(/C=C/C(=O)Nc2ccccc2)ccc1OCCCCCCCCCCN1CCCCC1 ?
1.83

logD for COc1cc(/C=C/C(=O)Nc2ccccc2)ccc1OCCCCCN1CCCC1 ?
1.64

logD for COc1cc(/C=C/C(=O)Nc2ccccc2)ccc1OCCCN(C)C ?
1.55

logD for COc1cc(/C=C/C(=O)Nc2ccccc2)ccc1OCCCCCCN(C)C ?
1.69

logD for CCN(CC)CCCCCCCCOc1ccc(/C=C/C(=O)O)cc1OC ?
1.51

logD for COc1cc(/C=C/C(=O)Nc2ccccc2)ccc1OCCCCCCCCN(C)C ?
1.74

logD for CCN(CC)CCCCCCOc1ccc(/C=C/C(=O)Nc2ccccc2)cc1OC ?
1.7

logD for COc1cc(/C=C/C(=O)O)ccc1OCCCCCCN1CCCCC1 ?
1.32
